Target Entity: human recombinant PLK4 (Homo sapiens (Human))
Sequence (O00444 whole entry): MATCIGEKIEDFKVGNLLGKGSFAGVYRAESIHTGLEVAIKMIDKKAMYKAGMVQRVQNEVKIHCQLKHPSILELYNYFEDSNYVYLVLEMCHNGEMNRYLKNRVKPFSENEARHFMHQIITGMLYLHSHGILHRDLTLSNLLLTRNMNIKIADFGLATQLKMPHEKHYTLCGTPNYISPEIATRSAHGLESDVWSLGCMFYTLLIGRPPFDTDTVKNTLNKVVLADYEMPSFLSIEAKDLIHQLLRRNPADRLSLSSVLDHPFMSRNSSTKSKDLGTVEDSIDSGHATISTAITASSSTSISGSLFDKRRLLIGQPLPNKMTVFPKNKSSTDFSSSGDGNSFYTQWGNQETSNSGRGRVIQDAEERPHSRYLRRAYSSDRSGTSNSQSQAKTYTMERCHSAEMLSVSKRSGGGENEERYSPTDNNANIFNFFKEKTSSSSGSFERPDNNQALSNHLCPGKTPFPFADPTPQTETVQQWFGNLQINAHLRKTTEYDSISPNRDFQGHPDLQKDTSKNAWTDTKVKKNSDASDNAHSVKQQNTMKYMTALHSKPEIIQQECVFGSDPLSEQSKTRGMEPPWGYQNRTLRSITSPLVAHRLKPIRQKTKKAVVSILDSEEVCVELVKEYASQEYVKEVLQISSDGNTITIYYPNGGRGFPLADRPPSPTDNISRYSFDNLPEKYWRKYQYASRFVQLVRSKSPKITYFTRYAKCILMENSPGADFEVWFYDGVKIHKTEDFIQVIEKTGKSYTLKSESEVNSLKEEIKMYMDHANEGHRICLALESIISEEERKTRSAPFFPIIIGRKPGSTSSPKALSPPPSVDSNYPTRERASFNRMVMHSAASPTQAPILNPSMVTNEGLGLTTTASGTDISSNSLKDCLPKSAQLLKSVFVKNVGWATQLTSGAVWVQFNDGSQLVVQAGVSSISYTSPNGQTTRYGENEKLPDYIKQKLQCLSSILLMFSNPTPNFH
Method Notes: PLK4 Biochemical Assay (ADP-Glo)
Condition Label: 0.5 nM PLK4, 8.0 µM ATP, 4.7 µM MBP, 6 hours at RT
Could you mark each record Criterion met if its IC50 falls strictly under 10 nM, and Criterion not met if it equals or exceeds it?

[
  {
    "Molecule": "COc1ccc2c(c1)[C@]1(C[C@H]1c1ccc3c(Nc4cccc5c4OCC5)n[nH]c3c1)C(=O)N2 [Example 16]",
    "Class": "Criterion met"
  },
  {
    "Molecule": "COc1ccc2c(c1)[C@]1(C[C@H]1c1ccc3c(Nc4cc(C)nn4CC(F)F)n[nH]c3c1)C(=O)N2 [Example 112]",
    "Class": "Criterion not met"
  },
  {
    "Molecule": "COc1ccc2c(c1)[C@]1(C[C@H]1c1ccc3c(Nc4ncnc(N5CCS(=O)(=O)CC5)c4OC)n[nH]c3c1)C(=O)N2 [Example 54]",
    "Class": "Criterion not met"
  }
]

I wonder whether COc1ccc2c(c1)[C@]1(C[C@H]1c1ccc3c(Nc4ncc(S(=O)(=O)N5CC6CCC(C5)O6)cc4OC)n[nH]c3c1)C(=O)N2 [Example 256] has IC50 below 10 nM. Can you tell?
Criterion met

I wonder whether COc1ccc2c(c1)[C@]1(C[C@H]1c1ccc3c(Nc4nc(CCO)nc(N5CCOCC5)c4OC)n[nH]c3c1)C(=O)N2 [Example 68] has IC50 below 10 nM. Can you tell?
Criterion met

I wonder whether CCOc1cc(S(C)(=O)=O)ncc1Nc1n[nH]c2cc([C@@H]3C[C@@]34C(=O)Nc3ccc(OC)cc34)ccc12 [Example 279] has IC50 below 10 nM. Can you tell?
Criterion met

* * *

Target Entity: human recombinant Aurora A (Homo sapiens (Human))
Sequence (O14965 whole entry): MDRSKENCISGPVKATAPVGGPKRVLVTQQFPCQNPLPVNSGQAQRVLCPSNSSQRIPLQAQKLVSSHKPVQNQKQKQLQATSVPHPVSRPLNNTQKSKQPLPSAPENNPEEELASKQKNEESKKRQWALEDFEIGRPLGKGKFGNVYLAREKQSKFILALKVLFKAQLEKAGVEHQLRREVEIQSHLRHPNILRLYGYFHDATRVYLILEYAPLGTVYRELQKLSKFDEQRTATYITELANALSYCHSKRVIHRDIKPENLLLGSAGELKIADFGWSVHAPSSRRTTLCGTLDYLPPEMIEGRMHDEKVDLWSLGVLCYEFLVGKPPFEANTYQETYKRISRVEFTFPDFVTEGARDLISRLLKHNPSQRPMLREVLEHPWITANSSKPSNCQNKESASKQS
Method Notes: Aurora A Kinase Biochemical Assay (ADP-Glo)
Condition Label: ratio of Aurora A IC50 to PLK4 IC50 (selectivity)
Could you mark each record Condition met if its [Aurora A IC50 (nM)]/[PLK4 IC50 (nM)] falls strictly under 900, and Condition not met if it equals or exceeds it?

[
  {
    "Molecule": "COc1ccc2c(c1)[C@]1(C[C@H]1c1ccc3c(Nc4ccc(C(=O)N5[C@H](C)CCC[C@@H]5C)nc4OC)n[nH]c3c1)C(=O)N2 [Example 245]",
    "Class": "Condition not met"
  },
  {
    "Molecule": "COc1ccc2c(c1)[C@]1(C[C@H]1c1ccc3c(Nc4ncnc(N5CCCOCC5)c4OC)n[nH]c3c1)C(=O)N2 [Example 44]",
    "Class": "Condition not met"
  },
  {
    "Molecule": "COc1cnc(C)nc1Nc1n[nH]c2cc([C@@H]3C[C@]34C(=O)Nc3ccc(C)cc34)ccc12 [Example 127]",
    "Class": "Condition met"
  }
]

I wonder whether COc1cnc(C)nc1Nc1n[nH]c2cc([C@@H]3C[C@@]34C(=O)Nc3ccc(OC(F)(F)F)cc34)ccc12 [Example 138] has [Aurora A IC50 (nM)]/[PLK4 IC50 (nM)] below 900. Can you tell?
Condition met

I wonder whether COc1ccc2c(c1)[C@]1(C[C@H]1c1ccc3c(Nc4nc(C5COC5)ncc4OC)n[nH]c3c1)C(=O)N2 [Example 119] has [Aurora A IC50 (nM)]/[PLK4 IC50 (nM)] below 900. Can you tell?
Condition met

I wonder whether CCS(=O)(=O)c1ccc(OC)c(Nc2n[nH]c3cc([C@@H]4C[C@@]45C(=O)Nc4ccc(OC)cc45)ccc23)c1 [Example 175] has [Aurora A IC50 (nM)]/[PLK4 IC50 (nM)] below 900. Can you tell?
Condition not met

* * *

Target Entity: human recombinant Aurora B (Homo sapiens (Human))
Sequence (Q96GD4 whole entry): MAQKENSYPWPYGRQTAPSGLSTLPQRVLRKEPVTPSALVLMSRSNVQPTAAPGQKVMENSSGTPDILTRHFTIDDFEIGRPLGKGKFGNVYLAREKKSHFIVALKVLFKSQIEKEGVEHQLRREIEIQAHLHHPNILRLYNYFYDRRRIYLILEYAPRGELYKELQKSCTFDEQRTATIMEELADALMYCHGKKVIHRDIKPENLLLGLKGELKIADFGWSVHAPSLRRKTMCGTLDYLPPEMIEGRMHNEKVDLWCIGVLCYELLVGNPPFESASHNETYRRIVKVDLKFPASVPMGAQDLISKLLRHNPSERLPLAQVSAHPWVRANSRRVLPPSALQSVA
Method Notes: Aurora B Kinase Biochemical Assay (ADP-Glo)
Condition Label: ratio of Aurora B IC50 to PLK4 IC50 (selectivity)
Attribute Measured: [Aurora B IC50 (nM)]/[PLK4 IC50 (nM)]
Numbers only.

[
  {
    "Smiles Representation": "COc1cnc(C)nc1Nc1n[nH]c2cc([C@@H]3C[C@@]34C(=O)Nc3ccccc34)ccc12",
    "[Aurora B IC50 (nM)]/[PLK4 IC50 (nM)]": 35.9
  },
  {
    "Smiles Representation": "COc1ccc2c(c1)[C@]1(C[C@H]1c1ccc3c(Nc4cc(N5CCCC5=O)cnc4OC)n[nH]c3c1)C(=O)N2",
    "[Aurora B IC50 (nM)]/[PLK4 IC50 (nM)]": 498.7527
  },
  {
    "Smiles Representation": "COc1ccc2c(c1)[C@]1(C[C@H]1c1ccc3c(Nc4ccc(P(C)(C)=O)nc4OC)n[nH]c3c1)C(=O)N2",
    "[Aurora B IC50 (nM)]/[PLK4 IC50 (nM)]": 235.7491
  },
  {
    "Smiles Representation": "COc1ccc2c(c1)[C@]1(C[C@H]1c1ccc3c(Nc4cc(C)ncc4Cl)n[nH]c3c1)C(=O)N2",
    "[Aurora B IC50 (nM)]/[PLK4 IC50 (nM)]": 351.8943
  },
  {
    "Smiles Representation": "COc1ccc2c(c1)[C@]1(C[C@H]1c1ccc3c(Nc4nn(C)c(=O)cc4OC)n[nH]c3c1)C(=O)N2",
    "[Aurora B IC50 (nM)]/[PLK4 IC50 (nM)]": 107.2788
  }
]

I'm hoping you can list [Aurora B IC50 (nM)]/[PLK4 IC50 (nM)] for every compound here, please.
1. COc1ccc2c(c1)[C@]1(C[C@H]1c1ccc3c(Nc4nc(C#N)nc(N5CCS(=O)(=O)CC5)c4OC)n[nH]c3c1)C(=O)N2
2. COc1ccc2c(c1)[C@]1(C[C@H]1c1ccc3c(Nc4nc(C#N)ncc4OC)n[nH]c3c1)C(=O)N2
3. COc1ccc2c(c1)[C@]1(C[C@H]1c1ccc3c(Nc4nccc5c4OC[C@@H]5CO)n[nH]c3c1)C(=O)N2
4. COc1ccc2c(c1)[C@]1(C[C@H]1c1ccc3c(Nc4ncc(C(=O)N5CC(OC)C5)cc4OC)n[nH]c3c1)C(=O)N2
5. COc1ccc2c(c1)[C@]1(C[C@H]1c1ccc3c(Nc4cc(F)c(C(=O)N5CCOCC5)cc4OC)n[nH]c3c1)C(=O)N2

[946.7771, 202.96, 8.474, 260.3503, 111.6597]

I'm hoping you can list [Aurora B IC50 (nM)]/[PLK4 IC50 (nM)] for every compound here, please.
1. COc1ccc2c(c1)[C@]1(C[C@H]1c1ccc3c(Nc4nc(N(C)C)ncc4C)n[nH]c3c1)C(=O)N2
2. COc1ccc2c(c1)[C@]1(C[C@H]1c1ccc3c(Nc4ncc(C(=O)N(C)C)nc4OC)n[nH]c3c1)C(=O)N2
3. COc1ccc2c(c1)[C@]1(C[C@H]1c1ccc3c(Nc4ncnc(N5CC6(COC6)C5)c4Cl)n[nH]c3c1)C(=O)N2
4. COc1cnc(C)nc1Nc1n[nH]c2cc([C@@H]3C[C@@]34C(=O)Nc3cccc(F)c34)ccc12

198.8774
114.8983
249.5114
17.1349

I'm hoping you can list [Aurora B IC50 (nM)]/[PLK4 IC50 (nM)] for every compound here, please.
1. COc1ccc2c(c1)[C@]1(C[C@H]1c1ccc3c(Nc4ncnc(N5C[C@@H](C)O[C@@H](C)C5)c4OC)n[nH]c3c1)C(=O)N2
2. Cc1ncc(OC(F)F)c(Nc2n[nH]c3cc([C@@H]4C[C@@]45C(=O)Nc4ccc(F)cc45)ccc23)n1

1. 55.0706
2. 62.6112

I'm hoping you can list [Aurora B IC50 (nM)]/[PLK4 IC50 (nM)] for every compound here, please.
1. COc1ccc2c(c1)[C@]1(C[C@H]1c1ccc3c(Nc4ccc(C(=O)N5CC6(COC6)C5)nc4OC)n[nH]c3c1)C(=O)N2
2. COc1ccc2c(c1)[C@]1(C[C@H]1c1ccc3c(Nc4nc(C(C)C)ncc4Cl)n[nH]c3c1)C(=O)N2
3. COc1ccc2c(c1)[C@]1(C[C@H]1c1ccc3c(Nc4ccc(C(=O)N5CCOCC5)cc4OC)n[nH]c3c1)C(=O)N2
4. COc1ccc2c(c1)[C@]1(C[C@H]1c1ccc3c(Nc4nc(C)cnc4OC)n[nH]c3c1)C(=O)N2

191.7065
906.5058
57.7095
38.67

I'm hoping you can list [Aurora B IC50 (nM)]/[PLK4 IC50 (nM)] for every compound here, please.
1. COc1cnc(C)nc1Nc1n[nH]c2cc([C@@H]3C[C@]34C(=O)Nc3ccc(OC(F)(F)F)cc34)ccc12
2. COc1ccc2c(c1)[C@]1(C[C@H]1c1ccc3c(Nc4ccc5c(c4OC)CN(C)C5=O)n[nH]c3c1)C(=O)N2
3. COc1ccc2c(c1)[C@]1(C[C@H]1c1ccc3c(Nc4cc(C5CC5)nn4C)n[nH]c3c1)C(=O)N2
4. CCP(=O)(CC)c1ccc(Nc2n[nH]c3cc([C@@H]4C[C@@]45C(=O)Nc4ccc(OC)cc45)ccc23)c(OC)n1
5. COc1ccc2c(c1)[C@]1(C[C@H]1c1ccc3c(Nc4ccnc(N5CCOCC5)c4OC)n[nH]c3c1)C(=O)N2

1. 9.6
2. 154.9914
3. 79.87
4. 324.5524
5. 54.26

I'm hoping you can list [Aurora B IC50 (nM)]/[PLK4 IC50 (nM)] for every compound here, please.
1. COc1ccc2c(c1)[C@]1(C[C@H]1c1ccc3c(Nc4cc5oc(C)nc5cc4Cl)n[nH]c3c1)C(=O)N2
2. COc1ccc2c(c1)[C@]1(C[C@H]1c1ccc3c(Nc4cc(C)cnc4OC)n[nH]c3c1)C(=O)N2

365.8694
314.3289
